Cited source: ChEMBL document CHEMBL2440080

Assay: Cytotoxicity against human EKVX cells after 48 hrs by sulforhodamine B assay
Assay type: functional
Recorded GI50 determines the label; the label ranges are low: < 0.3 µM; mid: ≥ 0.3 µM and < 1 µM; high: ≥ 1 µM

Solved entries (count: 5):
cpd.smiles: CCOc1cccc(/C=N/NC(=O)c2ccccc2Nc2ccnc(C(F)(F)F)c2)c1O
label: low

cpd.smiles: O=C(N/N=C/c1cc(Cl)ccc1O)c1ccccc1Nc1ccnc(C(F)(F)F)c1
label: low

cpd.smiles: O=C(N/N=C/c1ccccc1O)c1ccccc1Nc1ccnc(C(F)(F)F)c1
label: mid

cpd.smiles: CCOc1cccc(/C=N/NC(=O)c2cccc(Nc3ccnc(C(F)(F)F)c3)c2)c1O
label: mid

cpd.smiles: O=C(Cc1ccc(Nc2ccnc(C(F)(F)F)c2)cc1)N/N=C/c1ccccc1O
label: high

Prompt line: Class? Entry: "CCN(CC)c1ccc(/C=N/NC(=O)c2ccc(Nc3ccnc(C(F)(F)F)c3)cc2)c(O)c1"
Response line: low

Prompt line: Class? Entry: "CCN(CC)c1ccc(/C=N/NC(=O)c2ccccc2Nc2ccnc(C(F)(F)F)c2)c(O)c1"
Response line: low

Prompt line: Class? Entry: "CCN(CC)c1ccc(/C=N/NC(=O)c2cccc(Nc3ccnc(C(F)(F)F)c3)c2)c(O)c1"
Response line: low

Prompt line: Class? Entry: "COc1ccc(C(=O)N/N=C/c2ccc(O)cc2O)cc1Nc1ccnc(C(F)(F)F)c1"
Response line: mid

Prompt line: Class? Entry: "O=C(N/N=C/c1ccc(O)cc1O)c1ccc(Nc2ccnc(C(F)(F)F)c2)cc1"
Response line: high
